# tested.system: EGFRL858R (Homo sapiens, UniProt P00533, L858R)
# Sequence (P00533 25-1210 L858R): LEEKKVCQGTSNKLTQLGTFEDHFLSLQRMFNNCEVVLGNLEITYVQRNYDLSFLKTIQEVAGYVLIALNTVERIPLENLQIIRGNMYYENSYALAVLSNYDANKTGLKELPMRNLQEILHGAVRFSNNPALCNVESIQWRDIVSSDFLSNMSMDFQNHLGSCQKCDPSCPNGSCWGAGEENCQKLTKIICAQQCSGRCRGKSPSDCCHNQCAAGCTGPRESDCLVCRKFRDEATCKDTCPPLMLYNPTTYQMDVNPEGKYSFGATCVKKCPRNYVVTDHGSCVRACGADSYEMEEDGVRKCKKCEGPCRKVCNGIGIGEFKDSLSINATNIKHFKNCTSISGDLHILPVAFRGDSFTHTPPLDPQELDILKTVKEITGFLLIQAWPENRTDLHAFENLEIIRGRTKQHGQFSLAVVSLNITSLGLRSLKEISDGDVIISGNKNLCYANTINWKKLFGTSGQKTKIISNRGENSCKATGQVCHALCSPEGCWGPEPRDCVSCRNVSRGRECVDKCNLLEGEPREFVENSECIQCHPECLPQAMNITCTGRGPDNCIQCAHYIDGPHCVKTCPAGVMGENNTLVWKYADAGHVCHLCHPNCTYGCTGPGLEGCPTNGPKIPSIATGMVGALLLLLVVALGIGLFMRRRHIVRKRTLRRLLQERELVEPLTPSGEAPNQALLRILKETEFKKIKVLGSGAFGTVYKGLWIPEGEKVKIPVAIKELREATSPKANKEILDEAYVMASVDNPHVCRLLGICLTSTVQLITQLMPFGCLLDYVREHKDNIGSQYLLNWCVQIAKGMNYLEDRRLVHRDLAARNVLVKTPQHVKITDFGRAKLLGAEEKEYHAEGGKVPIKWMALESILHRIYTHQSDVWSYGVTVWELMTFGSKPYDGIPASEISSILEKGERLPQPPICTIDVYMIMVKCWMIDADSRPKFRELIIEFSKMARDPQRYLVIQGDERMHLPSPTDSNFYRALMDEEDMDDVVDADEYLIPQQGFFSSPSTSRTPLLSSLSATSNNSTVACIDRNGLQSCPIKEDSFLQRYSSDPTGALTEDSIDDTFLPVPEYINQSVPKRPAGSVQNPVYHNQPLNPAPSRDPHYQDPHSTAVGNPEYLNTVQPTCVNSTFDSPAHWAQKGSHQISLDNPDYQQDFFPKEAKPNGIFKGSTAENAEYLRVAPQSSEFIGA
# protocol.notes: KinaseProfiler enzymatic radiometric assay
# cond: ATP 10 μM, read-out: EGFR IC50
Assignment: determine reported IC50 for the given molecules.
A number alone suffices; assume nM.

**Query** Form: Entry = COc1cc2ncnc(Nc3cccc(Cl)c3F)c2cc1OCCON1CCOCC1 | System = EGFRL858R (Homo sapiens, UniProt P00533, L858R) | IC50 = ____
**Result** 1

**Query** Lab note: need IC50 with EGFRL858R (Homo sapiens, UniProt P00533, L858R) for entry COc1cc2ncnc(Nc3ccc(F)c(Cl)c3)c2cc1OCCON1CCN(C)CC1 , please look it up.
**Result** 2

**Query** Reported IC50 for EGFRL858R (Homo sapiens, UniProt P00533, L858R), given COc1cc2ncnc(Nc3cccc(Cl)c3F)c2cc1OCCON1CCN(C)CC1 ?
**Result** 2

###

# protocol.notes: Plasma protein binding by equilibrium dialysis
# Assay type: in vitro ADME
# cond: Sprague-Dawley, rat, plasma, 5 μM, read-out: fu,plasma% / %Unbound
Task for the reader: assign each of the following compounds its reported fraction unbound at 6 h, 5 μM.
Please state the value as a number alone, without comment.

**Query** Recorded fraction unbound at 6 h, 5 μM for COc1cc2ncnc(Nc3ccc(F)c(Cl)c3)c2cc1OCCCN1CCOCC1 [Gefitinib (1), Gefitinib, reference compound] , please?
**Result** 0.0249

**Query** May I ask what fraction unbound at 6 h, 5 μM has been recorded for COc1cc2ncnc(Nc3cccc(Cl)c3F)c2cc1OCCON1CCN(C)CC1 ?
**Result** 0.128

**Query** Which fraction unbound at 6 h, 5 μM value belongs to COc1cc2ncnc(Nc3cccc(Cl)c3F)c2cc1OCCON1CCOCC1 ?
**Result** 0.105

###

# Test system: MDR1
# protocol.notes: MDCKII-MDR1 permeability
# Assay type: in vitro ADME, canine
# cond: dog, MDCK-MDR1; 1 μM, 2 h
recorded.metric: Papp B→A at 2 h, 1 μM (×10⁻⁶ cm/s)
Number only, in ×10⁻⁶ cm/s; omit the unit.

**Query** // Papp B→A at 2 h, 1 μM lookup, key: COc1cc2ncnc(Nc3cccc(Cl)c3F)c2cc1OCCON1CCN(C)CC1 [Compound 9]
**Result** 9.06

**Query** What does the data say about its Papp B→A at 2 h, 1 μM? Entry: C[C@H]1O[C@@H](O[C@H]2[C@@H](O)C[C@H](O[C@H]3[C@@H](O)C[C@H](O[C@H]4CC[C@@]5(C)[C@H](CC[C@@H]6[C@@H]5C[C@@H](O)[C@]5(C)[C@@H](C7=CC(=O)OC7)CC[C@]65O)C4)O[C@@H]3C)O[C@@H]2C)C[C@H](O)[C@@H]1O [Digoxin, reference compound]
**Result** 10.2

**Query** Endpoint output: Papp B→A at 2 h, 1 μM of COCCc1ccc(OCC(O)CNC(C)C)cc1 (stereo not drawn) [Metoprolol, reference compound] . Value?
**Result** 20.9

**Query** I would be grateful if you could share the reported Papp B→A at 2 h, 1 μM for COc1cc2ncnc(Nc3cccc(Cl)c3F)c2cc1OCCON1CCOCC1 [Compound 7] .
**Result** 13.3

**Query** Please report the recorded Papp B→A at 2 h, 1 μM for COc1cc2ncnc(Nc3ccc(F)c(Cl)c3)c2cc1OCCON1CCN(C)CC1 [Compound 8] .
**Result** 11.7

**Query** Reported Papp B→A at 2 h, 1 μM, compound COc1cc2ncnc(Nc3ccc(F)c(Cl)c3)c2cc1OCCON1CCOCC1 [Compound 6] : ____
**Result** 8.26

###

# protocol.notes: Brain tissue binding by equilibrium dialysis
# Format: in vitro ADME
# cond: Sprague-Dawley, rat, rat brain homogenate; read-out: %Boundbrain (converted)
recorded.metric: fraction unbound at 6 h, 5 μM
Form field (numeric): enter value without unit.

**Query** Recorded fraction unbound at 6 h, 5 μM of COc1cc2ncnc(Nc3cccc(Cl)c3F)c2cc1OCCON1CCOCC1 , please.
**Result** 0.0478

**Query** Any idea what its fraction unbound at 6 h, 5 μM is? The compound is COc1cc2ncnc(Nc3ccc(F)c(Cl)c3)c2cc1OCCCN1CCOCC1 [Gefitinib (1), Gefitinib, reference compound]
**Result** 0.006

**Query** Look up fraction unbound at 6 h, 5 μM: COc1cc2ncnc(Nc3cccc(Cl)c3F)c2cc1OCCON1CCN(C)CC1
**Result** 0.0447

**Query** Suppose we examine the compound CCCc1nc2c(C)cc(-c3nc4ccccc4n3C)cc2n1Cc1ccc(-c2ccccc2C(=O)O)cc1 [Telmisartan, reference compound] ; what fraction unbound at 6 h, 5 μM value has been reported?
**Result** 0.0146

###

The next entries give measured Kd for UniProt P00533.
State the answer as a number, implicitly in nM.

**Query** Would you mind telling me what Kd value was observed for COc1cc2ncnc(Nc3ccc(F)c(Cl)c3)c2cc1OCCON1CCOCC1 [Compound 6] ?
**Result** 0.6

**Query** # lookup: Kd of COc1cc2ncnc(Nc3ccc(F)c(Cl)c3)c2cc1OCCON1CCN(C)CC1 [Compound 8]
**Result** 0.8

###

# protocol.notes: Caco-2 permeability
# Assay type: in vitro ADME
# cond: human, Caco-2, Caco-2; read-out: Recovery% (AP-BL)
recorded.metric: recovery at 2 h, 5 μM (%)
Numeric only. Scale: %

**Query** Fill in: recovery at 2 h, 5 μM of C[C@H]1O[C@@H](O[C@H]2[C@@H](O)C[C@H](O[C@H]3[C@@H](O)C[C@H](O[C@H]4CC[C@@]5(C)[C@H](CC[C@@H]6[C@@H]5C[C@@H](O)[C@]5(C)[C@@H](C7=CC(=O)OC7)CC[C@]65O)C4)O[C@@H]3C)O[C@@H]2C)C[C@H](O)[C@@H]1O [Digoxin, reference compound] is ___
**Result** 108

**Query** Param item = COc1cc2ncnc(Nc3cccc(Cl)c3F)c2cc1OCCON1CCN(C)CC1 [Compound 9] ; retrieve measured recovery at 2 h, 5 μM.
**Result** 53.9

**Query** Which measured recovery at 2 h, 5 μM value corresponds to COc1cc2ncnc(Nc3ccc(F)c(Cl)c3)c2cc1OCCON1CCN(C)CC1 [Compound 8] ?
**Result** 63.3

**Query** Need recovery at 2 h, 5 μM, item COCCc1ccc(OCC(O)CNC(C)C)cc1 (stereo not drawn) [Metoprolol, reference compound]
**Result** 97.4

**Query** Given the compound COc1cc2ncnc(Nc3cccc(Cl)c3F)c2cc1OCCON1CCOCC1 [Compound 7] , what is its reported recovery at 2 h, 5 μM?
**Result** 72.9

**Query** What measured recovery at 2 h, 5 μM goes with COc1cc2ncnc(Nc3ccc(F)c(Cl)c3)c2cc1OCCON1CCOCC1 [Compound 6] ?
**Result** 53.8

###

# protocol.notes: Brain tissue binding by equilibrium dialysis
# Type: in vitro ADME
# cond: Sprague-Dawley (SD), rat, rat brain homogenate
recorded.metric: recovery at 6 h, 5 μM
Express the reported value numerically, then name its unit.

**Query** Can you look up the measured recovery at 6 h, 5 μM of COc1cc2ncnc(Nc3cccc(Cl)c3F)c2cc1OCCON1CCN(C)CC1 [Compound 9] for me?
**Result** 102%

**Query** Any idea what its recovery at 6 h, 5 μM is? The compound is CCCc1nc2c(C)cc(-c3nc4ccccc4n3C)cc2n1Cc1ccc(-c2ccccc2C(=O)O)cc1 [Telmisartan, reference compound]
**Result** 107%

**Query** Requested field: recovery at 6 h, 5 μM. Item: COc1cc2ncnc(Nc3cccc(Cl)c3F)c2cc1OCCON1CCOCC1 [Compound 7]
**Result** 94.7%

**Query** Record request: recovery at 6 h, 5 μM value, item COc1cc2ncnc(Nc3ccc(F)c(Cl)c3)c2cc1OCCCN1CCOCC1 [Gefitinib (1), Gefitinib, reference compound]
**Result** 99.7%

###

# protocol.notes: Metabolic stability in liver microsomes
# Format: in vitro ADME, Sprague-Dawley rat
# cond: rat LM, +Cofactors, 30 min
Answer each item with its documented Remaining Percentage.
Unit % implied. Number only.

**Query** For COc1cc2ncnc(Nc3ccc(F)c(Cl)c3)c2cc1OCCCN1CCOCC1 [Gefitinib (1), Gefitinib, reference compound] , what is its reported Remaining Percentage?
**Result** 37.48

**Query** Would you kindly share the measured Remaining Percentage for COc1cc2ncnc(Nc3cccc(Cl)c3F)c2cc1OCCON1CCN(C)CC1 ?
**Result** 11.66

**Query** # input compound: COc1cc2ncnc(Nc3cccc(Cl)c3F)c2cc1OCCON1CCOCC1 ; wanted: its Remaining Percentage
**Result** 12.97

**Query** What does the data say about its Remaining Percentage? Entry: COc1cc2ncnc(Nc3ccc(F)c(Cl)c3)c2cc1OCCON1CCOCC1
**Result** 25.81

**Query** Could you tell me which Remaining Percentage is on file for COc1cc2ncnc(Nc3ccc(F)c(Cl)c3)c2cc1OCCON1CCN(C)CC1 ?
**Result** 32.28
